Reference source for all entries: patent US20250282866A1

assayedSystem: T1, human TREM2 (human, UniProt Q9NZC2 19-174, limits assumed)
T1 construct: also called triggering receptor expressed on myeloid cells 2
T1 sequence: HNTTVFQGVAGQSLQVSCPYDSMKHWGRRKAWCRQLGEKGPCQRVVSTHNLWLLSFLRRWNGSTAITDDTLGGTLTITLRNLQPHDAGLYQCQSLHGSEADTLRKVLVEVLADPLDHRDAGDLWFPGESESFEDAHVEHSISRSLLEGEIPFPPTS
assayNotes: 2nd screen 100 nM
endpointLabel: Binding Signal (fold over 6E7 Parental antibody) (fold)
Give the value in fold but do not write fold after it.

# binder, testResult
measured = [
    ("V46 (antibody, V domains shown) VH: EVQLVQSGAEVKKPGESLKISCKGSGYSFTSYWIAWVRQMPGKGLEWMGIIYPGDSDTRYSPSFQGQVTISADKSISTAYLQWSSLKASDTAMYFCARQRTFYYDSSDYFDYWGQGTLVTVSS VL: DIQMTQSPSSVSASVGDRVTITCRASQGISSWLAWYQQKPGKAPKLLIYAASTLQNGVPSRFSGSGSGTDFTLTISSLQPEDFATYFCQQADSFPRTFGQGTKLEIK", 0.96),
    ("V42 (antibody, V domains shown) VH: EVQLVQSGAEVKKPGESLKISCKGSGYSFTSAWIAWVRQMPGKGLEWMGIIYPGDSDTRYSPSFQGQVTISADKSISTAYLQWSSLKASDTAMYFCARQRTFYYDSSDYFDYWGQGTLVTVSS VL: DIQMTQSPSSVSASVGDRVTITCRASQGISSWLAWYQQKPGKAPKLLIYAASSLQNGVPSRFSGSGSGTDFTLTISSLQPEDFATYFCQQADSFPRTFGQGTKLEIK", 0.41),
]

In the following, a different binder is considered.
Quickly give me recorded Binding Signal (fold over 6E7 Parental antibody) for V67 (antibody, V domains shown) VH: EVQLVQSGAEVKKPGESLKISCKGSGYSFTSYWIAWVRQMPGKGLEWMGMIYPGDSDTRYSPSFQGQVTISADKSISTAYLQWSSLKASDTAMYFCARQRTFYYDSSDYFDYWGQGTLVTVSS VL: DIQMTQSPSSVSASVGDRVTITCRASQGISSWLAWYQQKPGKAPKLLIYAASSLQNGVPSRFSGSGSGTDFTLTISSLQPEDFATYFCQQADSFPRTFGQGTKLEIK
0.84
